Catalogue of compounds with associated inhibition at 10 µM
biological target: HDAC8 (Homo sapiens (Human)); experiment: SAMDI mass spectrometry HDAC inhibition assay; type: biochemical; details: at 10 μM, given if the IC50 was above 10 μM
Sequence (Q9BY41 whole entry): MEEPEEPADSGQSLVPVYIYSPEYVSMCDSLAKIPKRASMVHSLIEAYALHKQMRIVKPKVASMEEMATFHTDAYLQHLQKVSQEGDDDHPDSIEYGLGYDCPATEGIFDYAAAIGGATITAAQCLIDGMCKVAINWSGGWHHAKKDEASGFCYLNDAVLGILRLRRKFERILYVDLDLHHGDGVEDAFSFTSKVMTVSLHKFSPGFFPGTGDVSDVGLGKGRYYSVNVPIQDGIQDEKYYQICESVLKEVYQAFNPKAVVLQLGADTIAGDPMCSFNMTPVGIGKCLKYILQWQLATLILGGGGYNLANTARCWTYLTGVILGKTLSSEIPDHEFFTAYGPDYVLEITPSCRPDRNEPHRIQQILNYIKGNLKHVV
Provide only the numeric value, understood in %.

Recorded inhibition at 10 µM, per entry:
>  <Compound>
Oc1cccn(CCCn2cc(-c3ccccc3)nn2)c1=S [Compound 162b]

>  <inhibition at 10 µM [%]>
63

$$$$
>  <Compound>
O=c1c(O)cccn1Cc1ccccc1 [Compound 142b, 1-Benzyl-3-hydroxypyridine-2-one]

>  <inhibition at 10 µM [%]>
8

$$$$
>  <Compound>
O=c1c(O)cccn1CCCCn1cc(-c2ccccc2)nn1 [Compound 159c]

>  <inhibition at 10 µM [%]>
10

$$$$
>  <Compound>
O=c1c(O)cccn1CCCn1cc(-c2ccccc2)nn1 [Compound 159b]

>  <inhibition at 10 µM [%]>
47

$$$$

Fill blank: measured inhibition at 10 µM of the compound Cc1ccc(-c2ccc(Cn3cccc(O)c3=O)cc2)cc1 [Compound 148d] is ____.
25
